# TEST_NAME: NCI Yeast Anticancer Drug Screen. Data for the mlh1 rad18 strain (AID 175)
# RECORDED_CONDITIONS: S. cerevisiae mlh1 rad18 strain growth inhibition; at 50.0 µM
This is part of a sample that, as a whole, favours compounds with a hit. Of some 79,000 tested, about 15% had one in any assay. The source made the active and inactive calls. Cut-off read from the data, not from the text of the source: active = growth inhibition above about 70%; inactive = the rest.
Choose one outcome from this list and give only that: active, inactive

Look over these answered cases.
{"COMPOUND": "CCC(C(O)c1ccc(Cl)cc1)C(O)(C(F)(F)F)C(F)(F)F (stereo unspecified)", "LABEL_VALUE": "active"}
{"COMPOUND": "O=C1c2ccccc2-c2ccc([N+](=O)[O-])cc21", "LABEL_VALUE": "inactive"}
{"COMPOUND": "Nc1cc(Cl)cc2cc(Cl)cnc12", "LABEL_VALUE": "inactive"}
{"COMPOUND": "OCCCCCCN=Cc1ccccc1O.OCCCCCCN=Cc1ccccc1O.[Cu]", "LABEL_VALUE": "inactive"}
{"COMPOUND": "CCCCOc1ccc2c(c1)CC[C@@H]1[C@@H]2CC[C@]2(C)C(=O)N(CCCC)C(=O)C[C@@H]12", "LABEL_VALUE": "inactive"}
{"COMPOUND": "Fc1ccc2nncc(SCc3ccc(Cl)cc3)c2c1", "LABEL_VALUE": "inactive"}

Request: Per the records of this test, what outcome belongs to Clc1ccc(C(CI)c2ccccc2Cl)cc1 (stereo unspecified) ?
Response: inactive

Request: Item: `Cc1c(F)c(F)c(-c2c(F)c(F)c(C)c(F)c2F)c(F)c1F`
Response: inactive

====

# TEST_NAME: NCI Yeast Anticancer Drug Screen. Data for the mlh1 rad18 strain (AID 175)
# RECORDED_CONDITIONS: S. cerevisiae mlh1 rad18 strain growth inhibition; at 50.0 µM; stronger effect = higher value
Compounds without any hit were thinned out: in the full panel of roughly 79,000, 15% have a hit.
The molecules listed here are annotated with their growth inhibition.
Record the value in %, omitting the unit from your answer.

Request: Reported growth inhibition, molecule `O=Cc1ccc(N2CCCCC2)cc1` : ____
Response: -4.45

Request: Also, `CC(C)/C(Cl)=N/OC(=O)Nc1ccc(Br)cc1` please.
Response: 81.8

Request: Can you check O=C(NC(Cc1cccnc1)C(=O)O)c1ccccc1 (configuration not stated) next?
Response: 7.65

Request: Same read-out for `Cc1ccc2c(=O)cc(-c3cccc(F)c3)[nH]c2n1` ?
Response: -16.4

Request: Next entry: `Nc1cc(S(=O)(=O)O)ccc1O`
Response: -33.5

Request: Moving on to CCOC(=O)C(NCc1cccc(C(F)(F)F)c1)(NC(=O)c1ccccc1)C(F)(F)F (configuration not stated)
Response: 25

Request: What about `O=C1OCCC2(CCN(Cc3ccccc3)CC2)O1` ?
Response: 24.3

Request: Could you do the same for `CC(C)NC(=O)OCc1c(COC(=O)NC(C)C)c(-c2ccc(Cl)c(Cl)c2)n2c1C[C@@H](O)C2` , please?
Response: -44.4

Request: What would you report for `CN(C)Cc1cc(N=Nc2ccccc2)ccc1O` ?
Response: -19.4

====

# TEST_NAME: NCI Yeast Anticancer Drug Screen. Data for the mec2-1 strain (AID 157)
# RECORDED_CONDITIONS: S. cerevisiae mec2-1 strain, at 50.0 µM, stronger effect = higher value
About 79,000 compounds went through this panel and 15% of them were active in at least one assay; those are over-represented in the sample as a whole.
MEASURED_PARAMETER: growth inhibition (%)
The figure you give is taken to be in %; do not add the unit.

Field: example entries. Status: answers known.
{"COMPOUND": "O=C(CCCC(=O)N/N=C/c1cc(Cl)ccc1[N+](=O)[O-])N/N=C\\c1cc(Cl)ccc1[N+](=O)[O-]", "growth inhibition, %": 12.1}
{"COMPOUND": "C/C(Cl)=N\\OC(=O)Nc1ccc([N+](=O)[O-])cc1", "growth inhibition, %": 80.2}
{"COMPOUND": "Cc1cc(C(N)=O)c(C(N)=O)c(Cl)n1", "growth inhibition, %": -7.35}
{"COMPOUND": "CC(=O)OCCOC(=O)Nc1cccc2ccccc12", "growth inhibition, %": -7.9}
{"COMPOUND": "NNC(=O)CC(N)C(N)=O (centres undefined)", "growth inhibition, %": 3.5}
{"COMPOUND": "CCCCCSC1CCCC1", "growth inhibition, %": -10}
{"COMPOUND": "COc1ccc(-c2cc(C(=O)O)c3cc4ccccc4cc3n2)cc1Br", "growth inhibition, %": -15.9}
{"COMPOUND": "O/N=C/c1ccccn1", "growth inhibition, %": -31.9}

Read the next record carefully.
Request: growth inhibition for `CCCN(N)CCC` ?
Response: -16.6

====

# TEST_NAME: NCI Yeast Anticancer Drug Screen. Data for the rad50 strain (AID 155);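 note: 0% = growth of vehicle-only cultures of the same strain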
# RECORDED_CONDITIONS: S. cerevisiae rad50 strain growth inhibition; at 50.0 µM; stronger effect = higher value
About 79,000 compounds went through this panel and 15% of them were active in at least one assay; those are over-represented in the sample as a whole.
growth inhibition overview
# output: bare number, implied unit %

See these solved cases before continuing.
{"STRUCTURE_NOTATION": "c1ccc(-c2nnsc2-c2ccccc2)cc1", "ENDPOINT_RESULT": 17.5}
{"STRUCTURE_NOTATION": "C1CCC(N(CCN(C2CCCCC2)C2CCCCC2)C2CCCCC2)CC1", "ENDPOINT_RESULT": -38.5}

Below: the item to evaluate.
Request: What measured growth inhibition goes with `COC(=O)/C=C/c1ccc([N+](=O)[O-])cc1` ?
Response: -6.3

====

# TEST_NAME: NCI Yeast Anticancer Drug Screen. Data for the rad50 strain (AID 155);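 note: 0% = growth of vehicle-only cultures of the same strain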
# RECORDED_CONDITIONS: S. cerevisiae rad50 strain growth inhibition; at 50.0 µM; stronger effect = higher value
# Protocol: Growth inhibition of yeast strains with defined genetic alterations is measured as a screen for potential anti-cancer activity. Selected strains with alterations in DNA damage repair or cell cycle control were exposed to compounds and growth inhibition was measured relative to vehicle treated controls. The strain used in this assay is rad50
The panel holds about 79,000 compounds, 15% with a hit somewhere; the sample as a whole holds those more often.
growth inhibition values for the compounds below.
The reply should contain only the number, in %.

Request: // query growth inhibition value for entry `NC(=S)N/C=C\c1nc2ccccc2[nH]c1=O`
Response: -34.4

Request: Same again, this time with CCCCC1=CC1(C#N)[N+](=O)[O-] (stereo not given)
Response: 33.4

Request: `Cc1ccc(C(C)C)cc1O` , same question.
Response: 17.6

Request: Another compound to look at: `CN(C)CC(CN(C)C)C(=O)c1ccccc1`
Response: 8.6

Request: And the next one, CC(CC(=O)O)C(C)C(=O)O (stereo not given) ?
Response: -7.9

====

# TEST_NAME: NCI Yeast Anticancer Drug Screen. Data for the bub3 strain (AID 167)
# RECORDED_CONDITIONS: S. cerevisiae bub3 mutant strain, at 50.0 µM, stronger effect = higher value
# Procedure: Growth inhibition of yeast strains with defined genetic alterations is measured as a screen for potential anti-cancer activity. Selected strains with alterations in DNA damage repair or cell cycle control were exposed to compounds and growth inhibition was measured relative to vehicle treated controls. The strain used in this assay is bub3
This is part of a sample that, as a whole, favours compounds with a hit. Of some 79,000 tested, about 15% had one in any assay.
We begin with a simple list: items and their reported growth inhibition.
Use % as the unit, but write only the number.

{"COMPOUND": "C1CCC2(CC1)CCCN2", "growth inhibition [%]": -1.75}
{"COMPOUND": "OCn1c2ccccc2c2ccccc21", "growth inhibition [%]": 35.9}
{"COMPOUND": "O=S(=O)(O)C(CO)c1ccccc1 (centres undefined) (tested in a mixture with another compound)", "growth inhibition [%]": -28.7}

Request: Returns the measured growth inhibition for the input compound. Input: `CC1(C)C(=NNc2ccccc2)C(C)(C)C1=NNc1ccccc1`
Response: 96.2

Request: Same again, this time with COc1ccc(C(O)c2ccccc2C(=O)Nc2ccccc2)cc1 (centres undefined)
Response: -3.35

Request: Now try `CC(=O)Nc1ncc(Sc2ccc([N+](=O)[O-])cc2)s1` .
Response: -11.8

====

# TEST_NAME: NCI Yeast Anticancer Drug Screen. Data for the rad50 strain (AID 155);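 note: 0% = growth of vehicle-only cultures of the same strain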
# RECORDED_CONDITIONS: S. cerevisiae rad50 strain growth inhibition; at 50.0 µM; stronger effect = higher value
The panel holds about 79,000 compounds, 15% with a hit somewhere; the sample as a whole holds those more often.
growth inhibition by entry:
Form entry: value (%) — number only.

{"MOLECULE": "O=c1[nH]c(=O)n(C2CC(O)C(CO)O2)cc1C#Cc1ccc(C(F)(F)F)cc1 (stereo unspecified)", "growth inhibition, %": 13.1}
{"MOLECULE": "CC1(C)N=C(C(N)=O)c2ncn(CCCO)c2N1", "growth inhibition, %": -13.5}
{"MOLECULE": "O=c1c(O)c(-c2cccnc2)oc2ccc(Cl)cc12", "growth inhibition, %": -2.1}
{"MOLECULE": "Oc1ccc2c(c1)CCC2", "growth inhibition, %": 25}
{"MOLECULE": "CCNC(=O)NC(=O)C(C)(C)Oc1ccc(Cl)cc1", "growth inhibition, %": -8.4}

Okay, now this molecule:
Request: # lookup: growth inhibition of COC(=O)C1C(c2ccccc2)C1(C#N)C#N (stereo unspecified)
Response: -42.5
